System: HCC 2998
PROTOCOL DETAILS: NCI tumour cell line growth inhibition, 48 h
Active and inactive are the calls of the source. No stated cut-off is given here; in the data, active = GI50 up to about 1.1 µM and inactive = higher.
Below, each entry is listed alongside its reported GI50.
MEASUREMENT KIND: GI50

| SMILES | VALUE MEASURED |
| --- | --- |
| COc1ccc(C(=O)Cc2ccc(Br)cc2)cc1OC | > 100 µM (inactive) |
| O=C1C2=C(CC3=C(C2)CS(=O)(=O)C3)C(=O)C2=C1CC1=C(C2)CS(=O)(=O)C1 | 20.6 µM (inactive) |
| COC(=O)[C@H](Cc1ccccc1)NC(=O)NCCN(CCNC(=O)N[C@@H](Cc1ccccc1)C(=O)OC)C(=O)N[C@@H](Cc1ccccc1)C(=O)OC | 20.3 µM (inactive) |

###

System: ACHN
PROTOCOL DETAILS: NCI tumour cell line growth inhibition, 48 h
Calls of active or inactive are those of the source. No stated cut-off is given here; in the data, active = GI50 up to about 1.1 µM and inactive = higher.
MEASUREMENT KIND: GI50

| MOLECULE | VALUE MEASURED |
| --- | --- |
| Cc1ccc(-c2c(C#N)c(-c3ccc([N+](=O)[O-])cc3)c(C#N)c(=O)n2NS(=O)(=O)c2ccc(C)cc2)cc1 | 51.9 µM (inactive) |
| C=C1CC2(CC(c3ccccc3C)OC(c3ccccc3C)C2)OC1=O (stereo not drawn) | 2.36 µM (inactive) |
| Cn1c2c(c3ccccc31)CCN1OCC=C[C@@H](C(=O)O)[C@@H]21 | > 100 µM (inactive) |
| CC(=O)OC[C@]1(C)CCCC2(C)C1CCC1C=C(C)[C@H]3CCC12C3 (stereo partly drawn) | > 100 µM (inactive) |
| CNC(c1ccncc1)C(NC)c1ccncc1 (stereo not drawn) | > 100 µM (inactive) |
| O=C(O)Cn1cc([N+](=O)[O-])c(=O)c2ccccc21 | > 100 µM (inactive) |
| O=c1onc2n1-c1ccc(Cl)cc1C(=S)N1CSCC21 (stereo not drawn) | 66.8 µM (inactive) |
| Cc1cc(-n2nnc(C(=O)O)c2-c2ccccc2)c2ccc(Cl)cc2n1 | > 100 µM (inactive) |

###

Tested on: NCI-H460
PROTOCOL DETAILS: NCI tumour cell line growth inhibition, 48 h
Calls of active or inactive are those of the source. Cut-off read from the data, not from the text of the source: active = GI50 up to about 1.1 µM and inactive = higher. Where a SMILES comes first, the peptide text is derived from it. [ ]: non-standard residue; d: D form. The star is where a group is joined. NMeAc5c = CNC1(C(=O)O)CCCC1; Boc = CC(C)(C)OC(=O)*; OBn = c1ccc(CO*)cc1
Labels: active, inactive

| COMPOUND | CLASS |
| --- | --- |
| CN(C)c1ccc(/N=C2/C=CC(=C(C#N)C#N)c3ccccc32)cc1 | active |
| O=C1C2=C(CC3=C(C2)CS(=O)(=O)C3)C(=O)C2=C1CC1=C(C2)CS(=O)(=O)C1 | inactive |
| CN(C)c1ccc(/C=C2\N=C(N/N=C/c3ccc(N(C)C)cc3)NC2=O)cc1 | inactive |
| CCc1n[nH]c(=O)n1CCO | inactive |
| COC(=O)C1CC(C=[N+](C)C)=C(SC)N1 (stereo not given) | inactive |
| O=[PH](O)c1cccs1 | inactive |
| Clc1ccc(Cl)c2[s+]snc12 | inactive |
| CC(=O)Nc1ccc(S(=O)(=O)c2nnc(NC(C)=O)s2)cc1 | inactive |
| O=C1N[C@@H]2C(=C[C@H](O)[C@@H](O)[C@H]2O)c2cc3c(c(O)c21)OCO3 | active |
| N=c1nc(N)nc(N)n1-c1ccc(S(N)(=O)=O)cc1 | inactive |
| CC(=O)OC1C2CCC1C1C2N=NN1c1ccc([N+](=O)[O-])cc1 (stereo not given) | inactive |
| COC(=O)/C(C#N)=C1\CCc2ccccc21 | inactive |
| CC(C)(C)OC(=O)N1C(=O)C2CCCC21 (stereo not given) | inactive |
| NC(=O)c1ncn(C2C=CC(CP(=O)(O)O)C2)c1N (stereo not given) | inactive |
| COC(=O)C1(c2ccc(OC)cc2)NC(c2ccccc2)C2C(=O)N(c3ccc(OC)cc3)C(=O)C21 (stereo not given) | inactive |
| COC(=O)/C=C(\C)CC(O)/C=C(\C)CCC=C(C)C (stereo not given) | inactive |
| CCOc1ccccc1NC(=O)CCc1nnc2s/c(=C\CCc3ccccc3)c(=O)n12 | inactive |
| CN(C)CCNc1nc2c(no[n+]2[O-])c2ccccc12.[O-][Cl+3]([O-])([O-])O | inactive |
| CC(=O)OC[C@]1(C)CCCC2(C)C1CCC1C=C(C)[C@H]3CCC12C3 (stereo not given in full) | inactive |
| C#CCOCn1cnc2c(Sc3c([N+](=O)[O-])ncn3C)ncnc21 | inactive |
| Oc1ccc(/C=C/c2cc(O)cc(O)c2)cc1 | inactive |
| Nc1nc(-c2ccccc2)c(Cl)c(-c2cc(Cl)ccc2O)n1 | inactive |
| COc1ccc(-c2c3ccccc3c(-c3ccc(OCCCCCBr)cc3)c3ccccc23)cc1 | inactive |
| Oc1ccc(/C=N/c2nccs2)c(O)c1 | inactive |
| Cc1ccc(S(=O)(=O)c2scc(-c3ccccc3)c2C)cc1 | inactive |
| CC12OC3CC(O1)C1(C=O)C4CCC5(C)C(c6ccc(=O)oc6)CCC5(O)C4CCC1(C3)O2 (stereo not given) | active |
| COC1(OC)CC2C(=O)N(Cc3ccccc3)C1C(S(=O)(=O)c1ccccc1)C2C(C)S(=O)(=O)c1ccccc1 (stereo not given) | inactive |
| O=C1C=CC(=O)N1n1c(-c2ccccc2)n[nH]c1=O | inactive |
| COc1ccc(OCC(=N/NC(=O)c2ccncc2)/N=C/c2ccncc2)cc1 | inactive |
| CC(C)(Br)C(=O)C(Br)Br | inactive |
| O=C(N/N=C\c1cccc2ccccc12)Nc1ccccc1 | inactive |
| CC(=O)OC1CC[C@@]2(C)C(CC(OC3OC(CO)C(O)C(O)C3O)[C@]3(C)C2CCC24CC23CC[C@H]4C(C)CC(O)[C@@H](O)C(C)(C)O)C1(C)C (stereo not given in full) | inactive |
| CC(=O)Nc1ccc(S(=O)(=O)Nc2nc(-c3ccc(Cl)cc3)cc(N3N=C(c4ccc(Br)cc4)CC3c3ccccc3)n2)cc1 (stereo not given) | inactive |
| COc1ccc(/C=C2\CN(C)Cc3c2nc(O)c(C#N)c3-c2ccc(OC)cc2)cc1 | inactive |
| CCSC1=N/C(=C\c2ccccc2O)C(Nc2ccc(C)cc2)=N1 | inactive |
| O=S1(=O)C[C@@H](O)[C@H](O)CS1 | inactive |
| NC1=NS(=O)(=O)Nc2nc(-c3ccccc3)c(-c3ccccc3)nc21 | inactive |
| CN(C(=O)C(Cc1ccccc1)NC(=O)OC(C)(C)C)C1(C(=O)NC(Cc2ccccc2)C(=O)OCc2ccccc2)CCCC1 (stereo not drawn) (Boc-Phe-[NMeAc5c]-Phe-OBn; configuration not given here) | inactive |
| O=C1CNC(=O)N1 | inactive |
| C/C(=N/NC(=S)N1CCCCCC1)c1ccccc1O | active |
